Would you kindly list %Inh for each of these compounds?
- Tested on: QSK
- particulars: concentration: 1 μM, replicates: in singlicate; n = 1;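 also: KINOMEscan kinase panel screen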
Express your answer in %, writing the number without its unit.

Ask: Need %Inh, item CN(c1ccc(NC(=O)Nc2cc(C(F)(F)F)ccc2F)cc1)c1ccnc(Nc2ccc(S(N)(=O)=O)cc2)n1
Reply: 25

Ask: Name the reported %Inh value associated with the compound CN(C)S(=O)(=O)c1cc(-c2ccc3nccc(-c4cccc(S(N)(=O)=O)c4)c3c2)cnc1N
Reply: 7

Ask: Quick one: %Inh of COC(=O)Nc1nc2cc(Oc3ccc(NC(=O)Nc4cc(C(F)(F)F)ccc4F)cn3)ccc2[nH]1.Cl.Cl ?
Reply: 0

Ask: Could you tell me which %Inh is on file for Nc1ncc(-c2ccc3nccc(-c4ccncc4)c3c2)cc1S(=O)(=O)N1CCOCC1 ?
Reply: 0

Ask: What measured %Inh goes with CSc1cccc2c(-c3ccncn3)c(-c3ccc(F)cc3)nn12 ?
Reply: 14

Ask: Fill in: %Inh of CN1CCN(Cc2cccc(-c3ccc4c(Nc5ccc(Oc6ccccc6)cc5)ccnc4c3)c2)CC1 is ___
Reply: 9

Ask: Item COc1ccc(-c2coc3ccc(-c4nnc(SCc5ccc(OC)c(C(F)(F)F)c5)o4)cc23)cc1 has what recorded %Inh?
Reply: 0

Ask: I'd like to know its %Inh. The compound in question is CN1CCN(CCCNc2nccc(-c3c(-c4ccc(F)cc4)nn4cc(C(F)(F)F)ccc34)n2)CC1
Reply: 0

Ask: Reported %Inh for c1ccc(-c2n[nH]cc2Nc2ccnc3ccccc23)nc1 : what is it?
Reply: 0

Ask: Endpoint output: %Inh of O=c1[nH]cc(-c2ccc(N3CCOCC3)cc2)c2sc(-c3cn[nH]c3)cc12 . Value?
Reply: 11

Ask: I am curious: what %Inh value has been reported for CCc1ccc(-c2ccc3c(c2)-c2c(cnn2C)S(=O)(=O)N3C)cc1 ?
Reply: 0

Ask: Fill in: %Inh of Nc1ncc(-c2cccnc2)c2scc(-c3ccc4c(c3)CCN4C(=O)Cc3ccccc3)c12 is ___
Reply: 18

Ask: Which %Inh is listed for Cl.Cl.NCC(NCc1ccc(-c2ccnc3[nH]ccc23)s1)c1ccccc1 (centres unmarked) ?
Reply: 0

Ask: What %Inh value was documented for this compound, Cc1ccc(C(=O)N2CC[C@@H](O)C2)cc1-n1c(C)cc(OCc2ccc(F)cc2F)c(Br)c1=O ?
Reply: 0

Ask: // lookup %Inh for CN(C)Cc1ccc(-c2ccc3c(Nc4ccc(Oc5ccccn5)cc4)ccnc3c2)o1
Reply: 0

Ask: Return reported %Inh; argument: COc1cc(Nc2nccc(N3CCC(NC(=O)c4cc5ccccc5s4)C3)n2)cc(OC)c1OC (centres unmarked)
Reply: 100

Ask: Which measured %Inh value corresponds to O=C(Nc1cccc(-c2nn3ncccc3c2-c2ccnc(Nc3ccccc3)n2)c1)c1c(F)cccc1F ?
Reply: 10

Ask: Which measured %Inh value corresponds to Cn1cc(-c2[nH]c3cc(NC(=O)[C@H](N)C4CCCCC4)cc4c3c2C=NNC4=O)cn1 ?
Reply: 95.8

Ask: Can you look up the measured %Inh of CCn1c(-c2nonc2N)nc2c(C#CC(C)(C)O)ncc(OCCCCN)c21.O=C(O)C(F)(F)F.O=C(O)C(F)(F)F for me?
Reply: 5

Ask: Report %Inh for COc1cc(Nc2nccc(-c3c(-c4cccc(NC(=O)c5c(F)cccc5F)c4)nn4ccccc34)n2)cc(OC)c1OC please.
Reply: 3

Ask: Give its %Inh value. Item: O=C(Nc1cccc(-c2nn3ccccc3c2-c2ccnc(Nc3cccc(C(F)(F)F)c3)n2)c1)c1c(F)cccc1F
Reply: 2

Ask: Could you tell me which %Inh is on file for CC(C)(C)c1ccc2nccc(Nc3cccc(O)c3)c2c1 ?
Reply: 0

Ask: Record request: %Inh value, item O=C(Nc1cccc(-c2nn3ccccc3c2-c2ccnc(Nc3cccc(F)c3)n2)c1)c1c(F)ccc(F)c1Cl
Reply: 5

Ask: Consider the compound COc1ccc(Nc2nccc(N3CCC(NC(=O)Nc4cccc(OC)c4)C3)n2)cc1 (centres unmarked) and give its measured %Inh.
Reply: 6

Ask: State the recorded %Inh for this entry: Cn1cc(-c2ccc3c(c2)CCN3C(=O)Cc2cccc(F)c2)c2c(N)ncnc21
Reply: 8

Ask: Given the entry COc1cccc(-c2ccc3c(NC(=O)C4CC4)n[nH]c3n2)c1 , report its measured %Inh.
Reply: 0

Ask: %Inh lookup needed for COc1cc(Nc2ncc3c(C)nc(-c4cc5ccccc5[nH]4)n3n2)cc(OC)c1OC , thanks.
Reply: 0

Ask: For Cc1cccc(NC(=O)Nc2ccc(Oc3ncnc4ccn(C)c34)cc2)c1 , what is its reported %Inh?
Reply: 0

Ask: State the recorded %Inh for this entry: Cc1ccc(S(=O)(=O)Nc2ccc(Nc3nccc(Nc4cccc5[nH]ncc45)n3)cc2)cc1
Reply: 6

---

- Test system: MAP4K5
- particulars: concentration: 1 μM, replicates: in singlicate; n = 1
Use 8% as the dividing line for %Inh, with the line itself on the label 1 side and lower values as label 0.

Ask: Identify whether the reported %Inh of the following compound is 8% or greater: NCCCC(NC(=O)c1cc(Br)c(-c2ccnc3[nH]ccc23)s1)c1ccccc1.O=C(O)C(F)(F)F.O=C(O)C(F)(F)F (centres unmarked)
Reply: label 0

Ask: Does CCc1ccc(-c2ccc3c(c2)-c2c(cnn2C)S(=O)(=O)N3C)cc1 have a reported %Inh of at least 8%?
Reply: label 0

Ask: Answer whether %Inh of CN1CCN(Cc2cccc(-c3ccc4c(Nc5ccc(Oc6ccccc6)cc5)ccnc4c3)c2)CC1 is greater than or equal to 8%.
Reply: label 0

Ask: Check this compound for %Inh at or above 8%: O=C(Nc1cccc(-c2nn3ccccc3c2-c2ccnc(Nc3cccc(F)c3)n2)c1)c1c(F)ccc(F)c1Cl
Reply: label 1

Ask: # bool: %Inh of Cn1cc(-c2[nH]c3cc(NC(=O)[C@H](N)C4CCCCC4)cc4c3c2C=NNC4=O)cn1 >= 8%
Reply: label 1

Ask: Confirm if %Inh reported for the compound O=C(Nc1n[nH]c2nc(-c3ccc(O)cc3)ccc12)C1CC1 is 8% or above.
Reply: label 0

Ask: Tell me whether %Inh is at least 8% here: COc1cc(Nc2nccc(N3CCC(NC(=O)Nc4cccc(C(C)=O)c4)C3)n2)cc(OC)c1OC (centres unmarked)
Reply: label 0

Ask: Determine whether this compound has %Inh no lower than 8%: Nc1n[nH]c2cnc(-c3ccccc3)cc12
Reply: label 0

Ask: Could you please find out whether O=C(Nc1cccc(-c2nn3ncccc3c2-c2ccnc(Nc3ccccc3)n2)c1)c1c(F)cccc1F has %Inh that meets 8% or exceeds it?
Reply: label 1

Ask: Evaluate COc1cc(Nc2nccc(N3CCC(NC(=O)c4cc5ccccc5s4)C3)n2)cc(OC)c1OC (centres unmarked) : %Inh at minimum 8%?
Reply: label 1

Ask: Is %Inh for O=c1[nH]cc(-c2ccc(N3CCOCC3)cc2)c2sc(-c3cn[nH]c3)cc12 at or above 8%?
Reply: label 0

Ask: Exam item: decide whether the reported %Inh for c1ccc(-c2n[nH]cc2Nc2ccnc3ccccc23)nc1 is at least 8%.
Reply: label 0

Ask: Does the compound COC(=O)Nc1nc2ccc(Oc3ccc(NC(=O)Nc4cc(C(F)(F)F)ccc4F)cc3)cc2n1C.Cl have recorded %Inh that is 8% or more?
Reply: label 0

Ask: Please tell me: is the compound COc1ccc(-c2coc3ccc(-c4nnc(SCc5ccc(OC)c(C(F)(F)F)c5)o4)cc23)cc1 at or over 8% in terms of %Inh?
Reply: label 0

Ask: In plain terms: is recorded %Inh at least 8% for Cc1occc1-c1ncc(OC[C@@H](N)Cc2c[nH]c3ccccc23)cc1-c1ccc2[nH]nc(C)c2c1.O=C(O)C(F)(F)F ?
Reply: label 1

Ask: Please tell me: is the compound Oc1cc(Nc2ccnc3cc(I)ccc23)ccc1F at or over 8% in terms of %Inh?
Reply: label 1

---

Field: %Inh. Provide a value for each of the compounds that follow.
- Tested on: ULK2
- particulars: concentration: 1 μM, replicates: in singlicate; n = 1
Give your result in % as a bare value.

Ask: Requested field: %Inh. Item: NCCCC(NC(=O)c1cc(Br)c(-c2ccnc3[nH]ccc23)s1)c1ccccc1.O=C(O)C(F)(F)F.O=C(O)C(F)(F)F (stereo not shown)
Reply: 0

Ask: What value of measured %Inh is listed for CCCCc1nn2ncccc2c1-c1ccnc(Nc2ccc(N3CCN(C)CC3)cc2)n1 ?
Reply: 6

Ask: %Inh lookup needed for O=C(Nc1cccc(-c2nn3ccccc3c2-c2ccnc(Nc3cccc(F)c3)n2)c1)c1c(F)ccc(F)c1Cl , thanks.
Reply: 0

Ask: Please give the measured %Inh for this compound: CC(C)(C)c1ccc2nccc(Nc3cccc(O)c3)c2c1
Reply: 19

Ask: Field request: %Inh | item: Fc1ccc(-c2ncn(C3CCNCC3)c2-c2ccnc(Oc3ccc(-c4ccccc4)cc3)n2)cc1
Reply: 26

Ask: Need %Inh, item COCCOCCOc1cc2ncc3c4ccc(C#N)cc4[nH]c3c2cc1OC
Reply: 99.4

Ask: Would you mind telling me what %Inh value was observed for Cc1cccc(NC(=O)Nc2ccc(Oc3ncnc4ccn(C)c34)cc2)c1 ?
Reply: 0

Ask: Quick one: %Inh of Nc1ncc(-c2cccnc2)c2scc(-c3ccc4c(c3)CCN4C(=O)Cc3ccccc3)c12 ?
Reply: 0

Ask: Bench note: what %Inh did CC(=O)Nc1nc2cnc(Nc3cc(NC(=O)c4cccc(C5(C#N)CC5)c4Cl)ccc3C)nc2s1 show?
Reply: 6

Ask: Requested read-out: %Inh. Entry: Cl.c1ccc(-c2ccc3c(Nc4ccc5[nH]ncc5c4)ccnc3c2)nc1
Reply: 0

Ask: Using the record for Cc1ccc(C)c(NC(=O)NC2CCN(c3ccnc(Nc4ccc(F)cc4)n3)C2)c1 (stereo not shown) , report its %Inh.
Reply: 0

Ask: // lookup %Inh for CNC(=O)c1ccccc1Nc1nc(Nc2ccc(N3CCOCC3)cc2)ncc1Cl.Cl
Reply: 81

Ask: Using the record for CC(C)c1nc(-c2cccc(NS(=O)(=O)c3c(F)cccc3F)c2F)c(-c2ccnc(Nc3ccc(N4CCOCC4)nc3)n2)s1 , report its %Inh.
Reply: 83

Ask: Reported %Inh for O=C(NC1CCN(c2ccnc(Nc3ccc(F)cc3)n2)C1)c1cc2ccccc2s1 (stereo not shown) : what is it?
Reply: 1

Ask: What %Inh value was documented for this compound, O=C(Nc1n[nH]c2cc(-c3ccoc3)ccc12)C1CC1 ?
Reply: 1

Ask: Dear colleague, I am looking for the recorded %Inh of the following compound: CC(=O)N1CCN(c2ccc(Nc3nccc(-c4sc(C(C)C)nc4-c4cccc(NS(=O)(=O)c5cccc(Cl)c5)c4)n3)cn2)CC1
Reply: 4
